# MEASUREMENT_TARGET: SHP2 (Homo sapiens)
# PROCEDURE_SUMMARY: SHP2 allosteric inhibitor enzyme activity assay (DiFMUP fluorescence)
# Format: biochemical
# CONDITION_LABEL: class symbols
pIC50: −log10 of the molar value.
Reported values of pIC50 for individual entries

{"columns": ["MOLECULE", "MEASUREMENT_TARGET", "pIC50"],
 "data": [
  ["N[C@@H]1c2ccccc2CC12CCN(c1nc3[nH]nc(C4(c5cccc(OC6CC6)c5)CC4)c3c(=O)[nH]1)CC2 [Example 227]", "SHP2 (Homo sapiens)", "≥ 7.70"]
]}

Now take the following molecule into account.
Please indicate pIC50 recorded for CCCCCc1cc2c(s1)CCC=C2c1n[nH]c2nc(N3CCC4(CC3)Cc3ccccc3[C@H]4N)[nH]c(=O)c12 [Example 118]
7.22 to 7.70

====

# MEASUREMENT_TARGET: SHP2 (Homo sapiens, UniProt Q06124)
# PROCEDURE_SUMMARY: SHP2 allosteric inhibitor enzyme activity assay (DiFMUP fluorescence)
# Format: biochemical
# CONDITION_LABEL: numeric values
VALUE_KIND: IC50 (nM)

Field: example entries. Status: answers known.
{"columns": ["MOLECULE", "UNIT_ANNOTATION", "MEASURED_VALUE"],
 "data": [
  ["N[C@@H]1c2ccccc2CC12CCN(c1nc3[nH]nc(C4(c5cccc(C(F)(F)F)c5)CC4)c3c(=O)[nH]1)CC2", "nM", 2.2],
  ["N[C@@H]1c2ccccc2CC12CCN(c1nc3[nH]nc(C4=CSCc5ccccc54)c3c(=O)[nH]1)CC2", "nM", 1.7],
  ["N[C@@H]1c2ccccc2CC12CCN(c1nc3[nH]nc(C4(c5ccccc5)CC4)c3c(=O)[nH]1)CC2", "nM", 0.9]
]}

A: N[C@@H]1c2ccccc2CC12CCN(c1nc3[nH]nc(C4CCCc5ncccc54)c3c(=O)[nH]1)CC2 (stereo partly drawn)
B: N[C@@H]1c2ccccc2CC12CCN(c1nc3[nH]nc([C@H]4C[C@@H]4c4ccccc4)c3c(=O)[nH]1)CC2
C: Cc1cccc(C2(c3n[nH]c4nc(N5CCC6(CC5)Cc5ccccc5[C@H]6N)[nH]c(=O)c34)CC2)c1
Please produce an ascending ranking of these molecules based on IC50. Thanks in advance for listing the labels in the requested order.
B, C, A
(B: 0.48 nM, C: 0.9 nM, A: 1.9 nM)

====

# MEASUREMENT_TARGET: UniProt:Q12809
# Sequence (Q12809 whole entry): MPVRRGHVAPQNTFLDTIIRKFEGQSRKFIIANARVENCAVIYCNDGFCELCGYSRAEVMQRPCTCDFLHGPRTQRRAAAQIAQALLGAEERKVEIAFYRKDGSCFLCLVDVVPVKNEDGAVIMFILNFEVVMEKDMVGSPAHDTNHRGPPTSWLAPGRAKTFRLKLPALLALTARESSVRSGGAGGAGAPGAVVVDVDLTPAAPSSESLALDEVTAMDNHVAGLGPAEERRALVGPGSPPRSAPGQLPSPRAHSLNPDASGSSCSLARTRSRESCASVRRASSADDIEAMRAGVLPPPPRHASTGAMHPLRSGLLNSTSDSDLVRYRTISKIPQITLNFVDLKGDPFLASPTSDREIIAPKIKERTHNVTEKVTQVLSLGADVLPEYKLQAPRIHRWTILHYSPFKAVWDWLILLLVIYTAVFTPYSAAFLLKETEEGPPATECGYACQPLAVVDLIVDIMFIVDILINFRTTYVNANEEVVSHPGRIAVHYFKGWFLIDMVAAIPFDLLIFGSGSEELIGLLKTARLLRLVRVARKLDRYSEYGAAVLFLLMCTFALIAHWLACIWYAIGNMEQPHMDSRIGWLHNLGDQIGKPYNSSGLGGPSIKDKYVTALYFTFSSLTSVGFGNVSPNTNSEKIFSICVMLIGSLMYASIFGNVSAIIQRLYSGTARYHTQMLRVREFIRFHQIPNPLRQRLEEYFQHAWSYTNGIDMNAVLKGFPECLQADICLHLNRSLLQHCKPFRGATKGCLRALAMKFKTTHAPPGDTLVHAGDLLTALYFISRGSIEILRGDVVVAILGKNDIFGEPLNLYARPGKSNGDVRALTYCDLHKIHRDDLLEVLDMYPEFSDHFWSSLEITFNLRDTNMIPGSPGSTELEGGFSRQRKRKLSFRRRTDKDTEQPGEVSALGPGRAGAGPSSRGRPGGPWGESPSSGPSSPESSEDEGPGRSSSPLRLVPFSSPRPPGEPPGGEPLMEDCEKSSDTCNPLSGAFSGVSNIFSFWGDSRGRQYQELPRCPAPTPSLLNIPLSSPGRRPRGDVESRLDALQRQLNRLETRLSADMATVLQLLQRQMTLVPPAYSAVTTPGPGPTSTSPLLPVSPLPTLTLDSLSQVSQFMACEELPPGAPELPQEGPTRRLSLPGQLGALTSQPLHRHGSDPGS
# PROCEDURE_SUMMARY: Patch clamp assay to test the effect of compound on hERG channel
# CONDITION_LABEL: manual patch clamp, HEK 293 cells expressed with hERG, concentration for half maximum effect
Measured pIC50, listed per entry.
Lab note — pIC50 values are minus log10 of concentrations in M.

Example compounds with recorded pIC50:
{"columns": ["COMPOUND", "MEASURED_VALUE"],
 "data": [
  ["CCC(c1ccccc1)c1n[nH]c2nc(N3CCC4(CC3)Cc3ccccc3[C@H]4N)[nH]c(=O)c12 (some centres unmarked) [Example 217]", 6.27],
  ["Cn1c(N2CCC3(CC2)Cc2ccccc2[C@H]3N)nc2[nH]nc(C3(c4ccccc4)CC3)c2c1=O [Example 1]", 5.75],
  ["Cn1c(N2CCC3(CC2)Cc2ccccc2[C@H]3N)nc2[nH]nc(Sc3cccc(Cl)c3Cl)c2c1=O [Comparative compound 1, reference compound]", 7.05],
  ["N[C@@H]1c2ccccc2CC12CCN(c1nc3[nH]nc(C4(Cc5ccccc5)CC4)c3c(=O)[nH]1)CC2 [Example 74]", 5.74],
  ["N[C@@H]1c2ccccc2CC12CCN(c1nc3[nH]nc(C4(c5nc6ccccc6o5)CC4)c3c(=O)[nH]1)CC2 [Example 252]", 4.68]
]}

Please report pIC50 for the following compound: CCOC(=O)Nc1ccc(C2(c3n[nH]c4nc(N5CCC6(CC5)Cc5ccccc5[C@H]6N)[nH]c(=O)c34)CC2)cc1 [Example 231]
5.12

Consider the compound N[C@@H]1c2ccccc2CC12CCN(c1nc3[nH]nc(C4(c5ccccc5)CC4)c3c(=O)[nH]1)CC2 [Example 33] and give its recorded pIC50.
5.02

Please report pIC50 for the following compound: N[C@@H]1c2ccccc2CC12CCN(c1nc3[nH]nc(C4(c5ccccc5)CCC4)c3c(=O)[nH]1)CC2 [Example 90]
5.31

# return recorded pIC50 for input COc1ccc(C2(c3n[nH]c4nc(N5CCC6(CC5)Cc5ccccc5[C@H]6N)[nH]c(=O)c34)CC2)cc1 [Example 19]
4.93

====

# System: leukemia MV-4-11 cell
# PROCEDURE_SUMMARY: Cell proliferation assay (CellTiter-Glo), MV-4-11
# Type: cell-based
# CONDITION_LABEL: Homo sapiens, MV4-11; MV-4-11, 120 hrs, CTG; numeric values; read-out: Compound on MV-4-11 cell IC50
VALUE_KIND: IC50 (nM)

Below: 3 compounds and their reported IC50.
{"columns": ["COMPOUND", "IC50 (nM)"],
 "data": [
  ["N#Cc1ccc2c(c1)CCC=C2c1n[nH]c2nc(N3CCC4(CC3)Cc3ccccc3[C@H]4N)[nH]c(=O)c12", 2.1],
  ["N[C@@H]1c2ccccc2CC12CCN(c1nc3[nH]nc(C4=CCOc5c(F)cccc54)c3c(=O)[nH]1)CC2", 1.7],
  ["N[C@@H]1c2ccccc2CC12CCN(c1nc3[nH]nc(C4=CCCc5nc(Cl)ccc54)c3c(=O)[nH]1)CC2", 2.8]
]}

A: N[C@@H]1c2ccccc2CC12CCN(c1nc3[nH]nc(C4(c5cccc(C(F)(F)F)c5)CC4)c3c(=O)[nH]1)CC2
B: CC(=O)c1cccc(C2(c3n[nH]c4nc(N5CCC6(CC5)Cc5ccccc5[C@H]6N)[nH]c(=O)c34)CC2)c1
C: N[C@@H]1c2ccccc2CC12CCN(c1nc3[nH]nc(C4=CCCCc5ccccc54)c3c(=O)[nH]1)CC2
D: N[C@@H]1c2ccccc2CC12CCN(c1nn3cc(C4CC4)nc3s1)CC2 [Comparative compound 2, reference compound]
Order by IC50, ascending. Answer by listing the labels in the order asked for.
C, B, A, D
(C: 1.9 nM, B: 2.8 nM, A: 6.1 nM, D: 454 nM)

====

# MEASUREMENT_TARGET: SHP2 (Homo sapiens, UniProt Q06124)
# Sequence (Q06124 1-593): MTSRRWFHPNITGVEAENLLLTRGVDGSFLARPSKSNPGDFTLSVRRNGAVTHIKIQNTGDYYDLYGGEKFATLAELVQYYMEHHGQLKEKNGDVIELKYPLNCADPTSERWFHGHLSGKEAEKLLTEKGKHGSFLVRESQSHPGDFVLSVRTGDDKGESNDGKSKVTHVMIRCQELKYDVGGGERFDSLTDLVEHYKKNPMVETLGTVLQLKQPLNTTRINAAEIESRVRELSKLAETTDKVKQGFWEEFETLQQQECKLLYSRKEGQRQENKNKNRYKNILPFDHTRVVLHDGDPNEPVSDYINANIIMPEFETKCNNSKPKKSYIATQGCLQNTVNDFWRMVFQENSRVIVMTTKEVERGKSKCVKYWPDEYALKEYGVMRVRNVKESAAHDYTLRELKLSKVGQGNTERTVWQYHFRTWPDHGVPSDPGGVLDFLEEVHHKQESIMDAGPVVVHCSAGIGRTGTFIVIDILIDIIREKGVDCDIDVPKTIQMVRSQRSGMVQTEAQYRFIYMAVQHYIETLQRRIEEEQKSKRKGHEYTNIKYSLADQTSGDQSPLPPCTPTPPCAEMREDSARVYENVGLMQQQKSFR
# PROCEDURE_SUMMARY: SHP2 allosteric inhibitor enzyme activity assay (DiFMUP fluorescence)
# Assay type: biochemical
# CONDITION_LABEL: class symbols
pIC50: −log10 of the molar value.
Consider the following compounds and their measured pIC50 readings.

Example results:
{"columns": ["COMPOUND", "pIC50"],
 "data": [
  ["N[C@@H]1c2ccccc2CC12CCN(c1nc3[nH]nc(C4(c5ccnc(N6CCOCC6)c5Cl)CC4)c3c(=O)[nH]1)CC2 [Example 65]", "7.22 to 7.70"],
  ["N[C@@H]1c2ccccc2CC12CCN(c1nc3[nH]nc(C4(c5ccccc5)CC4)c3c3nncn13)CC2 [Example 3]", "≥ 7.70"],
  ["C[C@@H]1OCC2(CCN(c3nc4[nH]nc(C5(c6ccncc6)CC5)c4c(=O)[nH]3)CC2)[C@@H]1N [Example 274]", "7.22 to 7.70"]
]}

Note pIC50 for the compound shown: C[C@@H]1CCC2(CCN(c3nc4[nH]nc(C5(c6ccccc6)CC5)c4c(=O)[nH]3)CC2)[C@@H]1N [Example 320]
7.22 to 7.70

All values here come from patent US20230192705A1.
